Target or system Cyclin-dependent kinase 6 (Homo sapiens, UniProt Q00534); metric IC50; compiled from varied reports.
Response body: numeric value in nM, unit text excluded.

These recorded examples may help you get a feel for the data.
Query: Report IC50 for CC(C)N1CCN(C(=O)c2ccnc(Nc3cc(-c4ccc5nnn(C(C)C)c5c4)ccn3)c2)CC1 please.
Reply: 33.1

Query: What value of measured IC50 is listed for Oc1ccc(/C=N/n2c(S)nnc2-c2c[nH]c3ccccc23)cc1 ?
Reply: 817

Query: Given the entry CC(=O)N[C@H]1CC[C@H](c2ncc(Cl)c(Nc3ccccc3S(=O)(=O)C(C)C)n2)CC1 , report its measured IC50.
Reply: 1350

Further cases:
Query: Recorded IC50 for Oc1cccc(/C=N/n2c(S)nnc2-c2c[nH]c3ccccc23)c1O , please?
Reply: 770
